- System: soluble VEGF121 and VEGF165 isoforms
- TEST DETAILS: ELISA of soluble VEGF production in multiple human tumor cell lines (EC50)
- Type: cell-based
- SETUP CONDITIONS: Gastric, Kato III, hypoxic (1% oxygen), 48 hours, read-out: VEGF Inhibition Approximate EC50
ASSAY ENDPOINT: EC50

So for COc1ccc([C@H]2c3[nH]c4ccc(Cl)cc4c3CCN2C(=O)Oc2ccc(Cl)cc2)cc1 (racemic) , the logged EC50 turned out to be ~10 nM

###

- TEST DETAILS: In vitro plasma protein binding of 14C-Compound #10
- Type: in vitro ADME, mice, rats, dogs, monkeys, and humans
- SETUP CONDITIONS: mouse, rat, dog, monkey, human, all species, read-out: plasma protein binding, overall mean
ASSAY ENDPOINT: fraction unbound

// fraction unbound lookup, compound = COc1ccc([C@H]2c3[nH]c4ccc(Cl)cc4c3CCN2C(=O)Oc2ccc(Cl)cc2)cc1 (racemic) [Compound #10] , result: ≤ 0.005
